// data source = ChEMBL document CHEMBL5543151

tested on: MV4-11; experiment: Anti-leukemia activity against human MV4-11 cells assessed as decrease in cell proliferation incubated for 72 hrs by CCK-8 assay; format: functional, cell-based; conditions: MV4-11, 72 h
Each entry below carries its reported IC50.
observationType: IC50

>  <molSmiles>
O=c1nc(NCc2ccccc2)[nH]c2c1CN(CC1CC1)CC2

>  <measuredResult>
> 10 µM

$$$$
>  <molSmiles>
Cc1ccccc1CNc1nc(=O)c2c([nH]1)CCN(Cc1cccc(C#N)c1)C2

>  <measuredResult>
> 10 µM

$$$$
>  <molSmiles>
CS(=O)(=O)c1ccc(CN2CCc3[nH]c(NCc4ccccc4)nc(=O)c3C2)cc1

>  <measuredResult>
> 10 µM

$$$$
>  <molSmiles>
Cc1ccccc1CN1CCc2[nH]c(NCc3ccccc3)nc(=O)c2C1

>  <measuredResult>
> 10 µM

$$$$
>  <molSmiles>
CCN1CCc2[nH]c(NCc3ccccc3)nc(=O)c2C1

>  <measuredResult>
> 10 µM

$$$$
>  <molSmiles>
Cc1ccc(CN2CCc3[nH]c(NCc4ccccc4)nc(=O)c3C2)cc1

>  <measuredResult>
> 10 µM

$$$$

---

Each entry below carries its reported pEC50.
molecular target: ATP-dependent Clp protease proteolytic subunit, mitochondrial (Homo sapiens, UniProt Q16740); experiment: Agonist activity at human Casein lysing protease P (HsClpP) assessed as increase in peptidase activity using fluorescent peptide AC-WLA-AMC as substrate measured after 2 hrs by […]
Sequence (Q16740 whole entry): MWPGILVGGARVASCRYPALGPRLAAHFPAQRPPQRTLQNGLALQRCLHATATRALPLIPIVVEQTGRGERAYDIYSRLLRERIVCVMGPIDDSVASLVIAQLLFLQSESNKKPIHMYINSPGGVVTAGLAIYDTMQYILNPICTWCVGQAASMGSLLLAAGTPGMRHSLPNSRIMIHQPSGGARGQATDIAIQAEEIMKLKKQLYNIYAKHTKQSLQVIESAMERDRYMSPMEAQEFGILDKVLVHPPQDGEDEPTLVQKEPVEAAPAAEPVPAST
pEC50: −log10 of the molar value.

>  <molSmiles>
O=c1nc(NCc2ccccc2)[nH]c2c1CN(CC1CC1)CC2

>  <pEC50>
< 5.00

$$$$
>  <molSmiles>
O=c1nc(NCc2cccc(F)c2)[nH]c2c1CN(Cc1ccccc1)CC2

>  <pEC50>
< 5.00

$$$$
>  <molSmiles>
Cc1cccc(CNc2nc(=O)c3c([nH]2)CCN(Cc2ccccc2)C3)c1

>  <pEC50>
< 5.00

$$$$
>  <molSmiles>
N#Cc1cccc(CN2CCc3[nH]c(NCc4ccc(C(F)(F)F)cc4)nc(=O)c3C2)c1

>  <pEC50>
< 5.00

$$$$
>  <molSmiles>
O=c1nc(NCC2CCCCC2)[nH]c2c1CN(Cc1ccccc1)CC2

>  <pEC50>
< 5.00

$$$$
>  <molSmiles>
O=c1[nH]c(NCCc2ccccc2)nc2c1CN(Cc1ccccc1)CC2

>  <pEC50>
< 5.00

$$$$
>  <molSmiles>
O=c1nc(NCc2ccccc2)[nH]c2c1CN(CCc1ccccc1)CC2

>  <pEC50>
< 5.00

$$$$
>  <molSmiles>
O=c1nc(NCc2cccnc2)[nH]c2c1CN(Cc1ccccc1)CC2

>  <pEC50>
< 5.00

$$$$
>  <molSmiles>
Cc1ccccc1CNc1nc(=O)c2c([nH]1)CCN(Cc1cc(F)cc(F)c1)C2

>  <pEC50>
< 5.00

$$$$
>  <molSmiles>
Cc1ccccc1CNc1nc(=O)c2c([nH]1)CCN(Cc1cccc(C#N)c1)C2

>  <pEC50>
< 5.00

$$$$
>  <molSmiles>
O=c1nc(NCc2ccccc2Cl)[nH]c2c1CN(Cc1ccccc1)CC2

>  <pEC50>
< 5.00

$$$$
>  <molSmiles>
O=c1nc(NCc2ccc(C(F)(F)F)cc2)[nH]c2c1CN(Cc1ccc(Cl)c(Cl)c1)CC2

>  <pEC50>
< 5.00

$$$$
>  <molSmiles>
O=c1nc(NCc2ccccc2)[nH]c2c1CN(Cc1ccccc1F)CC2

>  <pEC50>
< 5.00

$$$$
>  <molSmiles>
CCNc1nc(=O)c2c([nH]1)CCN(Cc1ccccc1)C2

>  <pEC50>
< 5.00

$$$$
>  <molSmiles>
COc1cccc(CNc2nc(=O)c3c([nH]2)CCN(Cc2ccccc2)C3)c1

>  <pEC50>
< 5.00

$$$$
>  <molSmiles>
O=c1nc(NCc2cccc(Br)c2)[nH]c2c1CN(Cc1ccccc1)CC2

>  <pEC50>
< 5.00

$$$$
>  <molSmiles>
N#Cc1ccccc1CN1CCc2[nH]c(NCc3ccccc3)nc(=O)c2C1

>  <pEC50>
< 5.00

$$$$
>  <molSmiles>
Cc1ccc(CN2CCc3[nH]c(NCc4ccccc4)nc(=O)c3C2)cc1

>  <pEC50>
< 5.00

$$$$
>  <molSmiles>
O=c1nc(NCc2cccc(Cl)c2)[nH]c2c1CN(Cc1ccccc1)CC2

>  <pEC50>
< 5.00

$$$$
>  <molSmiles>
N#Cc1cccc(CN2CCc3[nH]c(NCc4cccc(F)c4)nc(=O)c3C2)c1

>  <pEC50>
< 5.00

$$$$
>  <molSmiles>
O=c1nc(NCc2ccc3c(c2)OCO3)[nH]c2c1CN(Cc1ccc(Cl)c(Cl)c1)CC2

>  <pEC50>
< 5.00

$$$$
>  <molSmiles>
O=c1nc(NCc2ccc(Cl)cc2)[nH]c2c1CN(Cc1ccccc1)CC2

>  <pEC50>
5.71

$$$$
>  <molSmiles>
Cc1ccccc1CN1CCc2[nH]c(NCc3ccccc3)nc(=O)c2C1

>  <pEC50>
< 5.00

$$$$
>  <molSmiles>
Cc1ccccc1CNc1nc(=O)c2c([nH]1)CCN(Cc1ccccc1)C2

>  <pEC50>
5.91

$$$$
>  <molSmiles>
O=c1nc(NCc2ccccc2)[nH]c2c1CN(Cc1cc(F)cc(F)c1)CC2

>  <pEC50>
6.02

$$$$
>  <molSmiles>
O=c1nc(NCc2ccccc2)[nH]c2c1CN(Cc1ccc(F)cc1)CC2

>  <pEC50>
< 5.00

$$$$
>  <molSmiles>
COc1cccc(CN2CCc3[nH]c(NCc4ccccc4)nc(=O)c3C2)c1

>  <pEC50>
< 5.00

$$$$

---

Each entry below carries its reported IC50.
system: MV4-11; assay: Anti-leukemia activity against human MV4-11 cells assessed as decrease in cell proliferation incubated for 72 hrs by CCK-8 assay; type: functional, cell-based; conditions: MV4-11, 72 h
observationType: IC50

>  <molSmiles>
O=c1nc(NCc2ccccc2)[nH]c2c1CN(Cc1ccccc1)CC2

>  <testTarget>
MV4-11

>  <observationType>
IC50

>  <measuredResult>
> 10 µM

$$$$
>  <molSmiles>
Cc1ccccc1CNc1nc(=O)c2c([nH]1)CCN(Cc1ccccc1)C2

>  <testTarget>
MV4-11

>  <observationType>
IC50

>  <measuredResult>
1.51 µM

$$$$
>  <molSmiles>
O=c1nc(NCc2cnccn2)[nH]c2c1CN(Cc1ccccc1)CC2

>  <testTarget>
MV4-11

>  <observationType>
IC50

>  <measuredResult>
> 10 µM

$$$$
>  <molSmiles>
O=c1nc(NCC2CCCCC2)[nH]c2c1CN(Cc1ccccc1)CC2

>  <testTarget>
MV4-11

>  <observationType>
IC50

>  <measuredResult>
> 10 µM

$$$$
>  <molSmiles>
O=c1[nH]c(NCCc2ccccc2)nc2c1CN(Cc1ccccc1)CC2

>  <testTarget>
MV4-11

>  <observationType>
IC50

>  <measuredResult>
> 10 µM

$$$$
>  <molSmiles>
O=c1nc(NCC2CC2)[nH]c2c1CN(Cc1ccccc1)CC2

>  <testTarget>
MV4-11

>  <observationType>
IC50

>  <measuredResult>
> 10 µM

$$$$
>  <molSmiles>
N#Cc1cccc(CN2CCc3[nH]c(NCc4ccc(F)cc4)nc(=O)c3C2)c1

>  <testTarget>
MV4-11

>  <observationType>
IC50

>  <measuredResult>
0.03 µM

$$$$
>  <molSmiles>
O=c1nc(NCc2ccccc2)[nH]c2c1CN(CCc1ccccc1)CC2

>  <testTarget>
MV4-11

>  <observationType>
IC50

>  <measuredResult>
> 10 µM

$$$$
>  <molSmiles>
N#Cc1cccc(CN2CCc3[nH]c(NCc4ccc(F)c(F)c4)nc(=O)c3C2)c1

>  <testTarget>
MV4-11

>  <observationType>
IC50

>  <measuredResult>
0.03 µM

$$$$
>  <molSmiles>
O=c1nc(NCc2cccc(Br)c2)[nH]c2c1CN(Cc1ccccc1)CC2

>  <testTarget>
MV4-11

>  <observationType>
IC50

>  <measuredResult>
> 10 µM

$$$$
>  <molSmiles>
O=c1nc(NCc2ccc3c(c2)OCO3)[nH]c2c1CN(Cc1ccccc1)CC2

>  <testTarget>
MV4-11

>  <observationType>
IC50

>  <measuredResult>
2.9 µM

$$$$
>  <molSmiles>
N#Cc1ccccc1CN1CCc2[nH]c(NCc3ccccc3)nc(=O)c2C1

>  <testTarget>
MV4-11

>  <observationType>
IC50

>  <measuredResult>
> 10 µM

$$$$
>  <molSmiles>
O=c1nc(NCc2ccc(C(F)(F)F)cc2)[nH]c2c1CN(Cc1ccc(Cl)c(Cl)c1)CC2

>  <testTarget>
MV4-11

>  <observationType>
IC50

>  <measuredResult>
> 10 µM

$$$$
>  <molSmiles>
O=c1nc(NCc2cccc(Cl)c2)[nH]c2c1CN(Cc1ccccc1)CC2

>  <testTarget>
MV4-11

>  <observationType>
IC50

>  <measuredResult>
1.88 µM

$$$$
>  <molSmiles>
O=c1nc(NCc2ccccc2)[nH]c2c1CN(Cc1ccccc1F)CC2

>  <testTarget>
MV4-11

>  <observationType>
IC50

>  <measuredResult>
> 10 µM

$$$$
